test system: MDR1-MDCK cell monolayers; experiment: Blood-brain-barrier (BBB) penetration potential via MDCK-MDR1 permeability assay; conditions: B-A direction
Field 'label' (enum: Met / Not met). Set to Met when MDCK-MDR1: % Recov B-A is strictly under 70%; else Not met.

Input: is_below(MDCK-MDR1: % Recov B-A, 70%) for O=C(c1cc2cc(O)c(-c3ccc(N(C4CC4)[C@H]4C[C@@H]5CC[C@@H](N5)[C@H]4F)nn3)cc2o1)N1CCC1 [Compound 57B] ?
Output: Not met

Input: Another compound to check: CN(C)C(=O)c1cc2cc(O)c(-c3ccc(N(C4CC4)[C@H]4C[C@@H]5CC[C@@H](N5)[C@H]4F)nn3)cc2o1 [Compound 86B]
Output: Not met

Input: Another compound to check: Cc1ccc(-c2ccc(-c3ccc(N(C)[C@H]4C[C@@H]5CCC[C@@H](N5)[C@H]4F)nn3)c(O)c2)nn1 [Compound 27B]
Output: Not met

Input: Another compound to check: CN(c1ccc(-c2cc3occc(=O)c3cc2O)nn1)[C@@H]1C[C@H]2CC[C@H](N2)[C@@H]1F [Compound 43A]
Output: Met

Input: Another compound to check: `CN(c1ccc(-c2ccc(-n3nccn3)cc2O)nn1)[C@@H]1C[C@H]2CCC[C@H](N2)[C@@H]1F`
Output: Met

* * *

tested on: MDR1 (P-gp); test: in vitro; settings: dog, MDCK-MDR1, pH 7.4
Below, each entry is listed alongside its reported Papp B→A at 120 min, 5 μM.
Give the value, in units of ×10⁻⁶ cm/s, as a plain number.

Known results for compounds:
{"columns": ["compound", "units", "reported value"],
 "data": [
  ["CN1[C@@H]2CC[C@H]1[C@H](F)[C@H](N(c1ccc(-c3cc4oc(C(=O)N5CCC5)cc4cc3O)nn1)C1CC1)C2 (single isomer, unassigned) [Compound 92A]", "×10⁻⁶ cm/s", 57.8],
  ["CNC(=O)c1cc(O)c(-c2ccc(N(C)[C@@H]3C[C@H]4CC[C@@H]([C@@H]3F)N4C)nn2)cc1F (single isomer, unassigned) [Compound 96A]", "×10⁻⁶ cm/s", 53.7],
  ["CN(c1ccc(-c2cnc(C#N)cc2O)nn1)[C@H]1C[C@@H]2CC[C@@H](N2)[C@H]1F (single isomer, unassigned) [Compound 71B]", "×10⁻⁶ cm/s", 20.9],
  ["CN(c1ccc(-c2ccc(Oc3cnn(C)c3)cc2O)nn1)[C@H]1C[C@@H]2CC[C@@H](N2)[C@H]1F (single isomer, unassigned) [Compound 91B]", "×10⁻⁶ cm/s", 73.3],
  ["CN(c1ccc(-c2cc3ncn(CC(F)(F)F)c(=O)c3cc2O)nn1)[C@@H]1C[C@H]2CC[C@@H]([C@@H]1F)N2C (single isomer, unassigned) [Compound 108A]", "×10⁻⁶ cm/s", 73.7]
]}

Kindly consider the entry below.
Input: Entry Cc1cc(=O)c2cc(O)c(-c3ccc(N(C)[C@@H]4C[C@H]5CC[C@@H]([C@@H]4F)N5C)nn3)cc2o1 [Compound 99A] has what Papp B→A at 120 min, 5 μM?
Output: 36.3

* * *

test system: MDR1-MDCK cell monolayers; assay: Blood-brain-barrier (BBB) penetration potential via MDCK-MDR1 permeability assay; conditions: B-A direction
Short version: MDCK-MDR1: % Recov B-A at least 90% is true, less is false.

Reference set, count: 2
{"columns": ["molecule", "assigned category"],
 "data": [
  ["CN(c1ccc(-c2cc3ccncc3s2)nn1)[C@@H]1C[C@H]2CC[C@H](N2)[C@@H]1F [Compound 65A]", "true"],
  ["Cc1ccc(-c2ccc(-c3ccc(N(C)[C@H]4C[C@@H]5CC[C@@H](N5)[C@H]4F)nn3)c(O)c2)nn1 (single isomer, unassigned) [Compound 25B]", "true"]
]}

Input: I'd appreciate it if you could say whether CN(c1ccc(-c2cc3c(=O)n(C)ccc3s2)nn1)[C@@H]1C[C@H]2CC[C@H](N2)[C@@H]1F (single isomer, unassigned) [Compound 68A] has MDCK-MDR1: % Recov B-A at least equal to 90%.
Output: false

Input: Another molecule to check: CN(c1ccc(-c2ccc(-n3cnc(C#N)c3)cc2O)nn1)[C@@H]1C[C@H]2CC[C@H](N2)[C@@H]1F [Compound 69A]
Output: false

Input: Another molecule to check: CN(C)C(=O)c1cc2cc(O)c(-c3ccc(N(C)[C@@H]4C[C@H]5CC[C@H](N5)[C@@H]4F)nn3)cc2o1 [Compound 9A]
Output: true

Input: Another molecule to check: CN(c1ccc(-c2cc(F)c(-c3ccn(C)c(=O)c3)cc2O)nn1)[C@H]1C[C@@H]2CC(F)(F)[C@H](C1)N2 [Compound 22B]
Output: true

Input: Another molecule to check: COc1cnc(-c2ccc(-c3ccc(N(C)[C@H]4C[C@@H]5CCC[C@@H](N5)[C@H]4F)nn3)c(O)c2)cn1 [Compound 29B]
Output: false
